# Tested on: DMS-273
# Assay Remarks: NCI tumour cell line growth inhibition, 48 h
Activity calls are given as the source filed them. Rule as the data show it: active = GI50 up to about 1.1 µM and inactive = higher.
Possible outcomes: active, inactive

>>> group_label("O=C1CCC(=O)c2c1c(O)c1ccncc1c2O")
"inactive"
>>> group_label("O=C(NC1CCCCC1)NC12CC3CC(CC(F)(C3)C1)C2")
"inactive"
>>> group_label("O=C1C=CC(=O)c2c1cc1ccccc1c2O")
"inactive"
>>> group_label("COC(=O)c1cc2c3c(ccc2[nH]1)N(C(=O)c1cc2c4c(ccc2[nH]1)N(C(=O)c1cc2c5c(ccc2[nH]1)N(C(N)=O)CC5)CC4)CC3")
"inactive"
>>> group_label("COc1cc2c(cc1OC)C(=O)N1CCCC1C(=O)S2 (stereo unspecified)")
"inactive"
>>> group_label("Cn1c(=O)c2nc3sc4c(n3c2n(C)c1=O)C(=O)c1ccccc1C4=O")
"inactive"
>>> group_label("COc1nc(C(Cl)(Cl)Cl)c(Cl)c(OC)c1Cl [PENCLOMEDINE]")
"inactive"
>>> group_label("CCN(CC)CCn1nc2c3c(c(NCCN)ccc31)Sc1cc(O)ccc1-2")
"active"
>>> group_label("COc1ccc2c(c1)OC[C@@H]1c3cc(O)c(OCc4ccccc4)cc3O[C@H]21")
"inactive"
>>> group_label("Cc1ccc(S(=O)(=O)OCCOCCOCCOCCOCCOS(=O)(=O)c2ccc(C)cc2)cc1")
"inactive"
>>> group_label("C=COC(=O)N[C@H]1CCc2cc(OC)c(OC)c(OC)c2-c2ccc(SC)c(=O)cc21")
"active"

----------
# Tested on: SK-MEL-28
# Assay Remarks: NCI tumour cell line growth inhibition, 48 h
Activity calls are given as the source filed them. No stated cut-off is given here; in the data, active = GI50 up to about 1.1 µM and inactive = higher.
The following compounds are shown together with reported GI50 values.
Measure Name: GI50

>>> result("COc1nc(C(Cl)(Cl)Cl)c(Cl)c(OC)c1Cl [PENCLOMEDINE]")
"39.7 µM (inactive)"
>>> result("O=C(/C=C/c1ccc(OCCSCCCCCCCCCCSCCOc2ccc(/C=C/C(=O)c3ccc(Cl)cc3)cc2)cc1)c1ccc(Cl)cc1")
"> 100 µM (inactive)"
>>> result("Cc1cc(N(CCC#N)CCC#N)ccc1/C=C1\\N=C(c2cc([N+](=O)[O-])ccc2Cl)N(NC(=O)c2ccc(/N=C\\c3ccc(N(CCC#N)S(C)(=O)=O)cc3C)cc2)C1=O")
"> 100 µM (inactive)"
>>> result("Cc1ccc(S(=O)(=O)N/N=C2/C3C(CC2(C)C)C2(C)CCCC3(C)C2O)cc1 (centres undefined)")
"18.9 µM (inactive)"
>>> result("CC(C)(C)C(=O)N(C(=S)OCc1ccccn1)c1ccccc1")
"> 100 µM (inactive)"
>>> result("Cc1cccc(N2C(=O)/C(=C/c3ccc(N(CCC#N)CCC#N)cc3C)N=C2c2cc([N+](=O)[O-])ccc2Cl)c1")
"> 100 µM (inactive)"
>>> result("Oc1c2ccccc2c2c3c(cccc13)N=N2 [SP-600125]")
"37.6 µM (inactive)"
>>> result("CC1OC1C(=O)P(=O)(O)O (centres undefined)")
"> 100 µM (inactive)"
>>> result("O=C(NCCCNCCCCNCCCNC(=O)C(F)(F)F)C(F)(F)F")
"> 100 µM (inactive)"

----------
GI50 reference
# Test system: EKVX
# Assay Remarks: NCI tumour cell line growth inhibition, 48 h
Activity calls are given as the source filed them. No stated cut-off is given here; in the data, active = GI50 up to about 1.1 µM and inactive = higher.
Measure Name: GI50

>>> result("COC(=O)C1CCC(=O)C(Sc2ccccc2)C1 (configuration not stated)")
"> 100 µM (inactive)"
>>> result("Cc1cc(N(CCC#N)CCC#N)ccc1/C=C1\\N=C(c2cc([N+](=O)[O-])ccc2Cl)N(NC(=O)c2ccc(/N=C\\c3ccc(N(CCC#N)S(C)(=O)=O)cc3C)cc2)C1=O")
"> 100 µM (inactive)"
>>> result("Cn1c(=O)c2[nH]c(/N=N/N3CCN(CCO)CC3)nc2n(C)c1=O")
"> 100 µM (inactive)"
>>> result("NC(=O)N/N=C(\\CC1OC(=O)c2ccccc21)c1ccco1 (configuration not stated)")
"> 100 µM (inactive)"
>>> result("CC(=O)OCC1OC(n2c(=O)[nH]c(=O)c3nn[nH]c32)C(OC(C)=O)C(OC(C)=O)C1OC(C)=O (configuration not stated)")
"> 100 µM (inactive)"
>>> result("CCN1CC2=C(OC(N)=C(C#N)C2c2ccc(Cl)cc2)/C(=C/c2ccc(Cl)cc2)C1 (configuration not stated)")
"39.5 µM (inactive)"
>>> result("CC(C)N(C(=O)C1(O)c2ccccc2C=Cc2ccccc21)C(C)C")
"16.6 µM (inactive)"
>>> result("CSC1(C)C(=O)Nc2c(OCc3ccccc3)cc([N+](=O)[O-])cc21 (configuration not stated)")
"29.4 µM (inactive)"
>>> result("Cc1ccc(/C=N/Nc2ccccn2)s1")
"> 72.8 µM (inactive)"
>>> result("N#CCc1nc(-c2ccccc2)n[nH]1")
"83.6 µM (inactive)"
>>> result("CCSC1=N/C(=C\\c2ccco2)C(Cl)=N1")
"> 100 µM (inactive)"
>>> result("CC/C=C/C[C@H](O)[C@H]1C[C@H]2O[C@H](CC(=O)OC)C[C@H]2O1")
"> 100 µM (inactive)"

The values you see were collected from ChEMBL document CHEMBL1201862.
